We begin with Ki values for Prothrombin (Homo sapiens), as collected from the published literature.

Previously resolved entries follow.
Cc1c(F)c(Oc2cccc(NC(N)=O)c2)nc(Oc2cccc(C(=N)N)c2)c1F
> 5 µM
O=C1CN(S(=O)(=O)c2cc3ccc(Cl)cc3s2)CCN1Cc1cc2c[n+]([O-])ccc2[nH]1
> 3.9 µM
CCOC(=O)C(Oc1ccc2c(c1)CN(C(=N)N)CC2)c1ccc(O[C@H]2CCN(C3=CC(=O)CC(C)(C)C3)C2)cc1 (stereo not given in full)
> 100 µM
O=C1[C@@H](NS(=O)(=O)c2cc3ncccc3s2)CCN1Cc1cc2cc[nH]cc-2n1
> 4 µM

Turning now to a further compound:
N=C(N)c1ccc2c(ccn2CC(=O)N2CCC(C(=O)c3ccccc3)CC2)c1 on Prothrombin (Homo sapiens) gives Ki = > 21 µM
